- Target Or Test System: Prostaglandin G/H synthase 2 (Homo sapiens)
- Sequence (whole entry): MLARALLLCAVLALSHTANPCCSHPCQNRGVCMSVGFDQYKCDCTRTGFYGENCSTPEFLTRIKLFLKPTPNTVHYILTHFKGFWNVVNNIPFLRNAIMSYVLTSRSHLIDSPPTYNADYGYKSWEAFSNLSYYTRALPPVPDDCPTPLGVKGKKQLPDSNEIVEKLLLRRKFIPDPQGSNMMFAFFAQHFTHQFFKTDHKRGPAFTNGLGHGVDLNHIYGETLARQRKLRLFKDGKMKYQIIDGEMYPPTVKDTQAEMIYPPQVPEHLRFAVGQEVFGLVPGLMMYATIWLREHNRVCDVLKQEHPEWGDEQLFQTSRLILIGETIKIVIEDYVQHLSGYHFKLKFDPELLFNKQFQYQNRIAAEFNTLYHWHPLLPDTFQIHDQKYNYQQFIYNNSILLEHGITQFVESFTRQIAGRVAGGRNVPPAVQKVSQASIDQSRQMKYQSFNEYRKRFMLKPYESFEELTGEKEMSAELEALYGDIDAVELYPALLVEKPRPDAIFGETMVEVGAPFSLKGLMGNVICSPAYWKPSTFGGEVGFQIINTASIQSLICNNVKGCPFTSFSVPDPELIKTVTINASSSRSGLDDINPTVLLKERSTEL
- Condition Summary: Blood; at 10 µM
- Description: Evaluation for percent inhibition of prostaglandin G/H synthase 2 in human whole blood (HWB) at a concentration of 10 um
Readout Type: inhibition (%)
Numbers only, in %.

Study these solved cases before continuing.
{"columns": ["Smiles Repr", "inhibition, %"],
 "data": [
  ["CCOC(=O)N1CCC(n2nc(CO)cc2-c2ccc(S(C)(=O)=O)cc2)CC1", 10],
  ["CS(=O)(=O)c1ccc(-c2cc(/C=C\\CCO[N+](=O)[O-])nn2-c2ccccc2)cc1", 100],
  ["CS(=O)(=O)c1ccc(-c2cc(C(=O)CCCO[N+](=O)[O-])nn2-c2ccc(C(F)(F)F)cc2)cc1", 100],
  ["CS(=O)(=O)c1ccc(-c2cc(/C=C/CCO[N+](=O)[O-])nn2-c2ccccc2)cc1", 90],
  ["CS(=O)(=O)c1ccc(-c2cc(CO)nn2C2CCCCCCC2)cc1", 75],
  ["CS(=O)(=O)c1ccc(-c2cc(C(=O)CCCO)nn2C2CCCCC2)cc1", 90],
  ["Cc1ccc(-n2nc(C(=O)CCCO[N+](=O)[O-])cc2-c2ccc(S(C)(=O)=O)cc2)cc1", 95],
  ["COc1ccc(-n2nc(C(=O)CCCO[N+](=O)[O-])cc2-c2ccc(S(C)(=O)=O)cc2)cc1", 100],
  ["CS(=O)(=O)c1ccc(-c2cc(C(=O)CCCO)nn2-c2ccccc2)cc1", 20],
  ["CS(=O)(=O)c1ccc(-c2cc(CO)nn2C2CCCCCC2)cc1", 25]
]}

Record inhibition for all entries; do not skip any.
1. CS(=O)(=O)c1ccc(-c2cc(CO[N+](=O)[O-])nn2Cc2ccccc2)cc1
2. CS(=O)(=O)c1ccc(-c2cc(/C=C/CO)nn2CC2CCCCC2)cc1
3. CS(=O)(=O)c1ccc(-c2cc(C(=O)CCCCCO[N+](=O)[O-])nn2C2CCCCC2)cc1
4. CS(=O)(=O)c1ccc(-c2cc(/C(CCCO[N+](=O)[O-])=N\O)nn2-c2ccccc2)cc1
5. CS(=O)(=O)c1ccc(-c2cc(/C(CCCO[N+](=O)[O-])=N\O)nn2-c2ccc(C#N)cc2)cc1
6. CS(=O)(=O)c1ccc(-c2cc(C(=O)CCCO)nn2-c2ccc(C#N)cc2)cc1

1: 40; 2: 45; 3: 75; 4: 85; 5: 20; 6: 10
